Molecular target: T1, cystic fibrosis transmembrane conductance regulator (CFTR) inhibitory factor (Cif) (Pseudomonas aeruginosa, UniProt A0A0H2ZD27 25-319)
T1 construct: also called CIF protein; Cif-protein
T1 sequence: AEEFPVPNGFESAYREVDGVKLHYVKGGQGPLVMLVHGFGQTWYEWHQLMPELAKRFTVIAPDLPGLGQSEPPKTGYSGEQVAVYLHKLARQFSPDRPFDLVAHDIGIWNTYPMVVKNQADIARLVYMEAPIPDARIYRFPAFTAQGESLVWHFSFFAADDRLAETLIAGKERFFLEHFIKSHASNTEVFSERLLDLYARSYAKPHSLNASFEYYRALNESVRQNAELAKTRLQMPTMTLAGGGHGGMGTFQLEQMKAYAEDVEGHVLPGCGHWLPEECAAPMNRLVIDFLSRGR
Test: sandwich ELISA, lower graph: Cif in serial dilution (about 0.05-100 ng/mL) captured on anti-Cif pAb 0.3 ug/well, VHH 50 ng/well, anti-HA mAb detection; the concentration is that of Cif; sheet labels the value IC50, text calls it EC50
assay-readout: EC50 (µg/mL)

INSERT INTO results (binder, observed) VALUES
  ('VHH CLONE 302 (VHH, The entry includes the C-terminal 6xHis and HA tags) VHH: QVKLQESGGGLVQPGGSLRLSCVASGNIGDIYTMGWYRQAPGKQRELVATVGDGGLTNFVDSVKGRFTISRDKSKGTVSLEMNSLKPEDTAVYYCNADVRIGPTGLRVYWGQGTQVTVSS', 0.0172),
  ('VHH CLONE 116 (VHH, The entry includes the C-terminal 6xHis and HA tags) VHH: EVQLVESGGGLVQPGGSLRLSCTASGSILKIYTMDWYRQAPGKQRDLVATVSSRGDTDYTDSVKGRFTISRDDAKNTAYLQMSSLKPEDTAVYYCNFYIQSRTAPFNDYWGQGTQVTVSS', 0.0312),
  ('VHH CLONE 220 (VHH, The entry includes the C-terminal 6xHis and HA tags; also called nanobody 220) VHH: EVQLVESGGGLVQPGGSLRLSCVASGNIGNIYTMGWYRQAPGKQRELVAAVGAGELTNYVDSVKGRFTISRDKSKGTVSLEMNSLKPEDTAVYYCNADVSIGPTGLRVYWGQGTQVTVSS', 0.0211),
  ('VHH CLONE 103 (VHH, The entry includes the C-terminal 6xHis and HA tags) VHH: EVQLMESAGGLVRPGGSLRLSCVASGSIGDIYSMGWYRQAPGKQRELVATVGAGGLTDYGDSVLGRFTISRDKTKGTVSLEMNSLKPEDTAVYYCNADVSIGPTGLRVYWGQGTQVTVSS', 0.0168),
  ('VHH CLONE 205 (VHH, The entry includes the C-terminal 6xHis and HA tags) VHH: DVQLQASGGGLVQPGGSLRLSCAATGSTDRIAFMGWYRQAPGKLRELVAGITSDGRTNYADDVDVSGRFTISRDSAKNMVYLQMNSLKPEDTAVYYCNADITLAMGGLRVYWGQGTQVTVSS', 0.0207);
